System: EP4 (Homo sapiens) | Read-out: Ki
Sequence (P35408 whole entry): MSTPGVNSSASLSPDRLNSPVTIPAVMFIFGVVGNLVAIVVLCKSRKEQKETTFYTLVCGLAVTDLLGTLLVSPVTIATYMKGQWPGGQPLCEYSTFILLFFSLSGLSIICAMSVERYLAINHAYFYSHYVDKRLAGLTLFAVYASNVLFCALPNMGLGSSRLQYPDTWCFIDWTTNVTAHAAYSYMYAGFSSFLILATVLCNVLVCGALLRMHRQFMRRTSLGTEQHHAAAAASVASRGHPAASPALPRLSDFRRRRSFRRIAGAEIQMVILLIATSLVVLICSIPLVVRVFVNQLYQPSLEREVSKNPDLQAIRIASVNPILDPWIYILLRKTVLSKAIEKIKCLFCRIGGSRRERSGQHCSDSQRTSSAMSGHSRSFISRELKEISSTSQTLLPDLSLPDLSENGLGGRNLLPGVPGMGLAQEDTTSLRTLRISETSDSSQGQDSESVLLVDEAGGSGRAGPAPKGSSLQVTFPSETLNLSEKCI
Return type: number; implicit unit µM.

structure smiles	tested on	data value
CCc1cccc(C#C[C@@H]2[C@@H](CCCc3ccc(C(=O)O)s3)[C@H](Cl)C[C@H]2O)c1	EP4 (Homo sapiens)	0.316
O=C(O)c1ccc(CCC[C@@H]2[C@@H](/C=C\c3cc(F)cc(F)c3)[C@H](O)C[C@H]2Cl)s1	EP4 (Homo sapiens)	3.22
O=C(O)c1csc(SCC[C@@H]2[C@@H](/C=C/c3cc(Cl)cc(Cl)c3)[C@H](O)C[C@H]2Cl)n1	EP4 (Homo sapiens)	0.616
C/C=C/c1cc(Cl)cc(/C=C/[C@@H]2[C@@H](CCCc3ccc(C(=O)O)s3)[C@H](Cl)C[C@H]2O)c1	EP4 (Homo sapiens)	0.09
O=C(O)c1ccc(C=CC[C@@H]2[C@@H](C=Cc3cc(Cl)cc(Cl)c3)[C@H](O)C[C@H]2Cl)s1	EP4 (Homo sapiens)	0.44
O=C(O)c1ccc(CCC[C@@H]2[C@@H](/C=C/c3cc(Cl)nc(Cl)c3)[C@H](O)C[C@H]2Cl)s1	EP4 (Homo sapiens)	0.162
O=C(O)c1ccc(CCC[C@@H]2[C@@H](C#Cc3cccnc3)[C@H](O)C[C@H]2Cl)s1	EP4 (Homo sapiens)	1.44
O=C(O)c1ccc(CCC[C@@H]2[C@@H](C#Cc3ccccn3)[C@H](O)C[C@H]2Cl)s1	EP4 (Homo sapiens)	2.14

Query string: // Ki lookup, key: N#C[C@@H]1C[C@@H](O)[C@H](C#Cc2ccccc2)[C@H]1CCCc1ccc(C(=O)O)s1
Result string: 0.587

Query string: Further, for O=C(O)c1ccc(CCC[C@@H]2[C@@H](/C=C\c3cc(Cl)nc(Cl)c3)[C@H](O)C[C@H]2Cl)s1 ?
Result string: 1.99

Query string: Similarly, O=C(O)c1ccc(CCC[C@@H]2[C@@H](C#Cc3ccncc3)[C@H](O)C[C@H]2Cl)s1 ?
Result string: 8.67

Query string: // next record C/C=C/c1cc(Cl)cc(/C=C\[C@@H]2[C@@H](CCCc3ccc(C(=O)O)s3)[C@H](Cl)C[C@H]2O)c1
Result string: 0.239

Query string: What about O=C(O)c1ccc(CCC[C@@H]2[C@@H](C#Cc3ccccc3)[C@H](O)C[C@H]2F)s1 ?
Result string: 1.02

* * *

Entries and their measured EC50 follow.
- tested on: hTP (Homo sapiens, UniProt P21731)
- Sequence (P21731 1-343): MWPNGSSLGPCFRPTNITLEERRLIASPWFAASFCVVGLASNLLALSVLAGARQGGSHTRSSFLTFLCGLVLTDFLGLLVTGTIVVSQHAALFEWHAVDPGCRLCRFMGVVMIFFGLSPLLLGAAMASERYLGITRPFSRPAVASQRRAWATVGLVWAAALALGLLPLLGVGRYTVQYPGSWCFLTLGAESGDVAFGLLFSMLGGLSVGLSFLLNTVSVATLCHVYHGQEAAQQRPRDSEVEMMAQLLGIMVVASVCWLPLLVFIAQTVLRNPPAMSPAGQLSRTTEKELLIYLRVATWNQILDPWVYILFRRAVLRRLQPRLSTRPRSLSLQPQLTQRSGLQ
- test description: Other receptors hTP
- Type: cell-based
Respond numerically; units are nM and should not be typed.

Query string: # input molecule: O=C(O)c1ccc(CCC[C@@H]2[C@@H](/C=C/c3cc(F)cc(F)c3)[C@H](O)C[C@H]2Cl)s1 [Example 6] ; wanted: its EC50
Result string: 65300

Query string: Query O=C(O)c1ccc(CCC[C@@H]2[C@@H](/C=C\c3cc(F)cc(F)c3)[C@H](O)C[C@H]2Cl)s1 [Example 7] next
Result string: 95

Query string: Record: Cc1cccc(/C=C/[C@@H]2[C@@H](CCCc3ccc(C(=O)O)s3)[C@H](Cl)C[C@H]2O)c1 [Example 12]
Result string: 3760
